Target: PCSK9 (Homo sapiens, UniProt Q8NBP7, G670E/V474I)
Sequence (Q8NBP7 with tags, fused parts or gaps V474I/G670E): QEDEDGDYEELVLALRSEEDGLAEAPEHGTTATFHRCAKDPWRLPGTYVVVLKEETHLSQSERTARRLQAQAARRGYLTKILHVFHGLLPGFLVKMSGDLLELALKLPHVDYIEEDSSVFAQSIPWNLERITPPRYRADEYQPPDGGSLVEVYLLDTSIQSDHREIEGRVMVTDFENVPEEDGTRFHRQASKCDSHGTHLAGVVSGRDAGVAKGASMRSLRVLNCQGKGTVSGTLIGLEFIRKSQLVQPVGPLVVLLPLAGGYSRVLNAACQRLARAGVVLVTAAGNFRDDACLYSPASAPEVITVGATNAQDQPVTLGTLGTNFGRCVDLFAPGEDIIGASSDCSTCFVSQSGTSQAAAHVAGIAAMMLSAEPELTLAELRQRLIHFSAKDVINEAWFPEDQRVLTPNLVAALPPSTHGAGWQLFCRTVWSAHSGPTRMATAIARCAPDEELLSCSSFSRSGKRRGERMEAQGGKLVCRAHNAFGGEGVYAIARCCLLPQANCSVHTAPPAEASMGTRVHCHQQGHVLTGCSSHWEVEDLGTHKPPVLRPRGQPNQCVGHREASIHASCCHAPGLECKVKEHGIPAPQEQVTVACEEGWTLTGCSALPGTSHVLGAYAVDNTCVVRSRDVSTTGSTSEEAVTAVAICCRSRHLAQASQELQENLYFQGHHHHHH
Test: biochemical
pIC50: −log10 of the molar value.
Cut-off 8 on pIC50, inclusive. At or above means 1; below means -1.

Example entries and their recorded answers appear below.
• Cc1cnc(N[C@H]2CC[C@H](Nc3ccc(-n4cccc(C)c4=O)cn3)C2)nn1 [Example 131] = 1
• O=c1ccccn1-c1ccc(N[C@H]2CC[C@H](Nc3ncc(Cl)nn3)C2)nc1 [Example 255] = -1
• Cc1cnc(N[C@H]2CC[C@H](Nc3ccc(-n4nccc(OC(F)F)c4=O)cn3)C2)nn1 [Example 281] = 1
• N#Cc1cccn(-c2ccc(N[C@H]3CC[C@H](Nc4ncc(C5CC5)nn4)C3)nc2)c1=O [Example 58] = 1
• Cc1cnc(NCC(CCO)CNc2ccc(-n3c(=O)n(C)c4cccnc43)cn2)nn1 (racemic) [Example 319] = -1
• Cn1c(=O)n(-c2ccc(N[C@H]3CC[C@H](Nc4ncc(C5CC5)nn4)C3)nc2)c2ccc(C#N)cc21 [Example 117] = 1

Okay, next one:
Exam item: Form field: pIC50 at least 8? Entry: Cc1cnc(N[C@H]2CC[C@H](Nc3ccc(-n4cccc(C#N)c4=O)cn3)C2)nn1 [Example 136]
Marked response: 1

* * *

Biological target: UniProt:P49841
Sequence (P49841 whole entry): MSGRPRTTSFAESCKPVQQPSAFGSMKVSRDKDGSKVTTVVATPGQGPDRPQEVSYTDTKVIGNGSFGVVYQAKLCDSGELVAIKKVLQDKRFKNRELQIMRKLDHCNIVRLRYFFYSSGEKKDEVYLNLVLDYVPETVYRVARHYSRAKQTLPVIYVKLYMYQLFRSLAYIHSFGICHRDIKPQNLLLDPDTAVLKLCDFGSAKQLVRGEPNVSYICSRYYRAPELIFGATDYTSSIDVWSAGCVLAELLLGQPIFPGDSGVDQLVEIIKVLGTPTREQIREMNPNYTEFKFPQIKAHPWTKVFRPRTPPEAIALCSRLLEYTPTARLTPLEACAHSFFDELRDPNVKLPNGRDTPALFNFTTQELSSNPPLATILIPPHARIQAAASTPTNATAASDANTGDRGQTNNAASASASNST
endpointName: IC50

Worked examples follow.
• CCNC(=O)c1cnc(N[C@H]2CC[C@H](Nc3ccc(-n4ccccc4=O)cn3)C2)nn1 [Example 73] = > 10 µM
• N#Cc1cccn(-c2ccc(N[C@H]3CC[C@H](Nc4ncc(C5CC5)nn4)C3)nc2)c1=O [Example 58] = > 10 µM
• Cc1cnc(N[C@H]2CC[C@H](Nc3ccc(-c4ncccc4C)cn3)C2)nn1 [Example 248] = > 10 µM
• Cc1cnc(N[C@H]2CC[C@H](Nc3ccc(-n4nccc(OC(F)F)c4=O)cn3)C2)nn1 [Example 281] = > 10 µM
• COc1c(C#N)ccc(F)c1-c1ccc(N[C@H]2CC[C@H](Nc3ncc(C4CC4)nn3)C2)nc1 [Example 168] = > 10 µM
• N#Cc1ccc(=O)n(-c2ccc(N[C@H]3CC[C@H](Nc4ncc(C5CC5)nn4)C3)nc2)c1 [Example 56] = > 10 µM
• Cc1cnc(N[C@H]2CC[C@H](Nc3ccc(-n4ccc(Cl)cc4=O)cn3)C2)nn1 [Example 182] = > 10 µM
• Cc1cnc(N[C@H]2CC[C@H](Nc3ccc(-n4nc(Cl)ccc4=O)cn3)C2)nn1 [Example 222] = > 10 µM
• NC(=O)CNC(=O)c1cnc(N[C@H]2CC[C@H](Nc3ccc(-n4ccccc4=O)cn3)C2)nn1 [Example 68] = > 10 µM
• Cc1ccc(=O)n(-c2ccc(N[C@H]3CC[C@H](Nc4ncc(C)nn4)C3)nc2)c1 [Example 130] = 5.7 µM

Here are 4 compounds. What values of IC50 were reported for them?
1. CN1C(=O)CN(c2ccc(N[C@H]3CC[C@H](Nc4ncc(C5CC5)nn4)C3)nc2)C1=O [Example 62]
2. O=c1ccc(-c2cn[nH]c2)cn1-c1ccc(N[C@H]2CC[C@H](Nc3ncc(C4CC4)nn3)C2)nc1 [Example 123]
3. Cc1cnc(N[C@H]2CC[C@H](Nc3ccc(-n4ncc5cccnc54)cn3)C2)nn1 [Example 310]
4. O=C(NC1COC1)c1cnc(N[C@H]2CC[C@H](Nc3ccc(-n4cc(Cl)ccc4=O)cn3)C2)nn1 [Example 158]

Marked response:
1. > 10 µM
2. 8.84 µM
3. > 10 µM
4. > 10 µM

Here are 8 compounds. What values of IC50 were reported for them?
1. Cn1c(=O)n(-c2ccc(N[C@H]3CC[C@H](Nc4ncc(C5CC5)nn4)C3)nc2)c2cc(C#N)ccc21 [Example 116]
2. N#Cc1cccn(-c2ccc(N[C@H]3CC[C@H](Nc4ncc(C(=O)NC5COC5)nn4)C3)nc2)c1=O [Example 159]
3. COc1cccn(-c2ccc(N[C@H]3CC[C@H](Nc4ncc(C(=O)NC5COC5)nn4)C3)nc2)c1=O [Example 153]
4. Cc1cnc(N[C@H]2CC[C@H](Nc3ccc(-n4cccc(OC(F)F)c4=O)cn3)C2)nn1 [Example 187]
5. O=c1c(Cl)cccn1-c1ccc(N[C@H]2CC[C@H](Nc3ncc(C4CC4)nn3)C2)nc1 [Example 55]
6. O=c1cccnn1-c1cnc(N[C@H]2CC[C@H](Nc3ncc(C4CC4)nn3)C2)nc1 [Example 119]
7. Cc1cnc(N[C@H]2CC[C@H](Nc3ccc(-c4ccccn4)cn3)C2)nn1 [Example 309]
8. CN(C)C(=O)c1cnc(N[C@H]2CC[C@H](Nc3ccc(-n4ccccc4=O)cn3)C2)nn1 [Example 76]

Marked response:
1: > 10 µM; 2: > 10 µM; 3: > 10 µM; 4: 3.78 µM; 5: 1.6 µM; 6: > 10 µM; 7: > 10 µM; 8: > 10 µM

* * *

Molecular target: potassium ion channel hERG (Homo sapiens, UniProt Q12809)
Sequence (Q12809 whole entry): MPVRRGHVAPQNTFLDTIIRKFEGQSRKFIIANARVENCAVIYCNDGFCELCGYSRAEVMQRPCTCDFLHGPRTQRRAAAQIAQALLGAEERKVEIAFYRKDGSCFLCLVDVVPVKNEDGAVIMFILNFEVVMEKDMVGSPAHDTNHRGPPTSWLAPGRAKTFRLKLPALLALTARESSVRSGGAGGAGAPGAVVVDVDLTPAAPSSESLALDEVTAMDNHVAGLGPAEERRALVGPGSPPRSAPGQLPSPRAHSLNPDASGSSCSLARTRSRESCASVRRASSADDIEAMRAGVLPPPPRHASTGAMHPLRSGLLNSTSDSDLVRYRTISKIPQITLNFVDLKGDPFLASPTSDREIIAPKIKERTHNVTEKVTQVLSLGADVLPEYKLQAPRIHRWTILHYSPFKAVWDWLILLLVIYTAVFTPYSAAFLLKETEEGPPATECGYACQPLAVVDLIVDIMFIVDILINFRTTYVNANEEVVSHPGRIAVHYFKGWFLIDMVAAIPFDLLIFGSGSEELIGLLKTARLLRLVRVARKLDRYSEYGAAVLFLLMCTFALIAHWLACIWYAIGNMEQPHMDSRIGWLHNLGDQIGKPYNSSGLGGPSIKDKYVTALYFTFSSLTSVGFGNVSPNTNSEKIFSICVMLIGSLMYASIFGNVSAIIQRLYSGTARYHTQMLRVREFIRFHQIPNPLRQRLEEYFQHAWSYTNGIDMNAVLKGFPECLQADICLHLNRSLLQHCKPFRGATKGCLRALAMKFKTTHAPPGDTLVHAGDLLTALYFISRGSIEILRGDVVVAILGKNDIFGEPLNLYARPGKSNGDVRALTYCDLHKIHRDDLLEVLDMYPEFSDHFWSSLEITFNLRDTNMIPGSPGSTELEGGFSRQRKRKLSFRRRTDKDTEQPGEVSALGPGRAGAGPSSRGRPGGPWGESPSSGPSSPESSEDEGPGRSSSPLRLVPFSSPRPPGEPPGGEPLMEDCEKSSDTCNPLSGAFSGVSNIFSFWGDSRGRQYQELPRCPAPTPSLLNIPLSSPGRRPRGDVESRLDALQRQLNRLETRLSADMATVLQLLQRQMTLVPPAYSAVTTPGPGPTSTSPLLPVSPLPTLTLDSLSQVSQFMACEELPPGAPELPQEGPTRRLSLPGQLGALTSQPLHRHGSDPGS
Experiment: Assay 5 hERG assay (patch clamp, CHO cells over-expressing hERG)
Conditions: SyncroPatch 384PE, room temperature, geometric mean, read-out: Assay 5 (hERG Hu CHO if EPh CR-Syncro) GMean IC50
pIC50: −log10 of the molar value.
Cut-off 5 on pIC50, inclusive. At or above means TRUE; below means FALSE.

• Cn1c(=O)n(-c2ccc(N[C@H]3CC[C@H](Nc4ncc(C5CC5)nn4)C3)nc2)c2ccc(C#N)cc21 = TRUE
• Cn1cccc(-c2cnc(N[C@H]3CC[C@H](Nc4ncc(C5CC5)nn4)C3)nc2)c1=O = FALSE
• Cn1c(=O)n(-c2ccc(N[C@H]3CC[C@H](Nc4ncc(C5CC5)nn4)C3)nc2)c2ncccc21 = FALSE
• Cc1nnc(N[C@H]2CC[C@H](Nc3ccc(-n4ccccc4=O)cn3)C2)[nH]c1=O = FALSE
• COc1ccc(=O)n(-c2ccc(N[C@H]3CC[C@H](Nc4ncc(C)nn4)C3)nc2)c1 = FALSE

Okay, next one:
Exam item: Form field: pIC50 at least 5? Entry: O=c1ccccn1-c1ccc(N[C@H]2CC[C@H](Nc3ncc(C4CC4)nn3)C2)nc1
Marked response: FALSE

* * *

Target: PCSK9 (Homo sapiens, UniProt Q8NBP7)
Sequence (Q8NBP7 31-692): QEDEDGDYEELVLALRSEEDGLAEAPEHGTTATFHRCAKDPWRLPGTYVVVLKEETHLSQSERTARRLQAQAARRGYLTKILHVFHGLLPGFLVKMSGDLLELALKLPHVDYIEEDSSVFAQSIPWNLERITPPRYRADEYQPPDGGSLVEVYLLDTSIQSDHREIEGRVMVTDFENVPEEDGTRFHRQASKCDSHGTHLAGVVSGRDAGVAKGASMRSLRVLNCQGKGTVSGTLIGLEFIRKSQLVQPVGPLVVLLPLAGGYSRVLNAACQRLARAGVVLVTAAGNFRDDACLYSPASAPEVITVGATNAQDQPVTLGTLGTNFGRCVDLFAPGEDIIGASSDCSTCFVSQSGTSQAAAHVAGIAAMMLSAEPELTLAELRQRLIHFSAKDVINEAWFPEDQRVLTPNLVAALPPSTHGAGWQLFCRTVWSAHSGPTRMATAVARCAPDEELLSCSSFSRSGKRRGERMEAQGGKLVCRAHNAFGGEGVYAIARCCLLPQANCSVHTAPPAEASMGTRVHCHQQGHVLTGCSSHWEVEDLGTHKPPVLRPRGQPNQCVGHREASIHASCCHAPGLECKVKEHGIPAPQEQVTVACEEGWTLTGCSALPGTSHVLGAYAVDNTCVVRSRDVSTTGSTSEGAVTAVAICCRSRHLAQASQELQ
# note: exactly 2 nM is not below, so it is no (0); use yes (1) for Kd strictly under it

* O=c1ccc(Cl)cn1-c1ccc(N[C@H]2CC[C@H](Nc3ncc(C4CC4)nn3)C2)nc1 | no (0)
* CNC(=O)c1cnc(N[C@H]2CC[C@H](Nc3ccc(-n4ccccc4=O)cn3)C2)nn1 | no (0)
* Cc1cnc(N[C@H]2CC[C@H](Nc3ccc(-n4c(=O)n(C)c5ccc(C#N)cc54)cn3)C2)nn1 | yes (1)

Exam item: Kd under 2 nM? Item: Cc1cnnc(N[C@H]2CC[C@H](Nc3ccc(-n4ccccc4=O)cn3)C2)n1
Marked response: no (0)

Exam item: Kd under 2 nM? Item: Cn1c(=O)n(-c2ccc(N[C@H]3CC[C@H](Nc4ncc(C5CC5)nn4)C3)nc2)c2cc(C#N)ccc21
Marked response: yes (1)

Exam item: Kd under 2 nM? Item: COc1cccn(-c2ccc(N[C@H]3CC[C@H](Nc4ncc(C5CC5)nn4)C3)nc2)c1=O
Marked response: yes (1)

Exam item: Kd under 2 nM? Item: Cc1cnc(N[C@H]2CC[C@H](Nc3ccc(-n4nccc(Cl)c4=O)cn3)C2)nn1
Marked response: yes (1)

Exam item: Kd under 2 nM? Item: Cn1c(=O)n(-c2ccc(N[C@H]3CC[C@H](Nc4ncc(C5CC5)nn4)C3)nc2)c2ccc(C#N)cc21
Marked response: yes (1)

* * *

Please respond with reported pIC50 for every item in the list.
Target: potassium ion channel hERG (Homo sapiens)
Assay: Assay 5 hERG assay (patch clamp, CHO cells over-expressing hERG)
Conditions: SyncroPatch 384PE, room temperature, geometric mean, read-out: Assay 5 (hERG Hu CHO if EPh CR-Syncro) GMean IC50
pIC50: −log10 of the molar value.

* Cc1cnc(NCC(CCO)CNc2ccc(-n3c(=O)n(C)c4ccccc43)cn2)nn1 (racemic) | < 4.40
* Cc1cnc(N[C@H]2CC[C@H](Nc3ccc(-n4cccc(C(F)(F)F)c4=O)cn3)C2)nn1 | < 4.40
* Cc1cnc(N[C@H]2CC[C@H](Nc3ccc(-n4cccc(OC(F)(F)F)c4=O)cn3)C2)nn1 | < 4.40
* Cn1cccc(-c2cnc(N[C@H]3CC[C@H](Nc4ncc(C5CC5)nn4)C3)cn2)c1=O | < 4.40
* O=c1ccc(-c2cn[nH]c2)cn1-c1ccc(N[C@H]2CC[C@H](Nc3ncc(C4CC4)nn3)C2)nc1 | < 4.40

Here are 7 compounds. What values of pIC50 were reported for them?
1. Cn1c(=O)n(-c2ccc(N[C@H]3CC[C@H](Nc4ncc(C5CC5)nn4)C3)nc2)c2ccc(C(=O)O)cc21
2. O=c1ccccn1-c1ccc(N[C@H]2CC[C@H](Nc3ncc(Cl)nn3)C2)nc1
3. Cc1cnc(N[C@H]2CC[C@H](Nc3ccc(-n4cccc(C#N)c4=O)cn3)C2)nn1
4. COc1cccc(OC)c1-c1ccc(N[C@H]2CC[C@H](Nc3ncc(C)nn3)C2)nc1
5. Cc1cnc(N[C@H]2CC[C@H](Nc3ccc(-n4cc(Cl)ccc4=O)cn3)C2)nn1
6. O=c1ccncn1-c1cnc(N[C@H]2CC[C@H](Nc3ncc(C4CC4)nn3)C2)nc1
7. Cc1cnc(N[C@H]2CC[C@H](Nc3ccc(-n4cc(-c5cnn(C)c5)ccc4=O)cn3)C2)nn1

Marked response:
< 4.40
< 4.40
< 4.40
4.63
< 4.40
< 4.40
< 4.40
